# Assayed Target: Histone-lysine N-methyltransferase EHMT2 (Homo sapiens) (UniProt Q96KQ7)
# Sequence (Q96KQ7 913-1193 limits assumed): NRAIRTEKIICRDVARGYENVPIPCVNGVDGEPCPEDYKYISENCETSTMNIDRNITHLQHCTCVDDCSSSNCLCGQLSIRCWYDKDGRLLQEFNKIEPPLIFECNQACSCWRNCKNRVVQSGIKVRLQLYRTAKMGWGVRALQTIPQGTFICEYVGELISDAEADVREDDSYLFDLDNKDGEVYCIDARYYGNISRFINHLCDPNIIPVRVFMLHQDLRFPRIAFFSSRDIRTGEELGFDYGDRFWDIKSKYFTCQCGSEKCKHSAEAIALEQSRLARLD
# Method: qHTS Assay for Inhibitors of Histone Lysine Methyltransferase G9a; also: nearly all actives have a fitted effect of over 75% in size; also: potency is read from the fitted curve at half-maximal effect
# Experimental Setup: G9a H3K9 monomethylation, AlphaScreen, 2 h; series mostly up to 59 µM
Among all 350,000 compounds or so, about 31,000 (8.9%) were called active. Inconclusive results (about 15%) are left out. The full list was thinned out, with actives kept by preference.
Reported Endpoint: Potency

Consider the following illustrative entries.
Cc1ccc(N=C2NC(=O)/C(=C/C=C/c3ccco3)S2)cc1C ... 10 µM (active)
COC(CCN(C)C)(c1ccccc1)c1ccccc1 ... inactive
COC(=O)C1(C)NC(c2ccc(F)cc2)C2C(=O)N(c3ccccc3)C(=O)C21 (configuration not stated) ... inactive
O=C(Nc1ccc(N2CCCC2=O)cc1)c1cncc(Br)c1 ... inactive
O=C(NC(=S)Nc1ccc(Cl)c(C(=O)O)c1)c1cncc(Br)c1 ... 44.7 µM (active)

Prompt: Item CC1CCCN(S(=O)(=O)c2ccc3[nH]c(=O)cc(C(=O)NCCc4ccc(Cl)cc4)c3c2)C1 (configuration not stated) has what recorded Potency?
Completion: inactive

Prompt: Item FC(F)(F)c1nc2ccccc2nc1N/N=C/c1ccc(Cl)cc1 has what recorded Potency?
Completion: inactive

Prompt: Item COc1ccccc1-c1sc2ccccc2c1-c1ccc(C(C)=O)cc1 has what recorded Potency?
Completion: inactive

Prompt: Item O=C(Nc1nc(-c2ccc(-c3ccccc3)cc2)cs1)c1cnccn1 has what recorded Potency?
Completion: inactive

Prompt: Item COc1cccc2[nH]c(C(=O)NCCc3ccccc3)cc12 has what recorded Potency?
Completion: inactive

Prompt: Item CC(=O)Nc1ccc(NC(=O)CSc2nnnn2C2CCCCC2)cc1 has what recorded Potency?
Completion: inactive

Prompt: Item CCC(=O)N1CCc2cc(S(=O)(=O)NC(C(=O)Nc3ccc(C(C)=O)cc3)C(C)C)ccc21 (configuration not stated) has what recorded Potency?
Completion: inactive

Prompt: Item Cc1c(C(=O)OCC(=O)N2CCCC2=O)oc2ccccc12 has what recorded Potency?
Completion: inactive

Prompt: Item Cc1cccc(N2CCN(S(=O)(=O)c3ccc4[nH]c5c(c4c3)CCCCC5)CC2)c1C has what recorded Potency?
Completion: inactive

Prompt: Item Cc1cc2ccccc2n1CCNC(=O)c1ccc(F)cc1 has what recorded Potency?
Completion: inactive

Prompt: Item Brc1ccc(-c2csc(N/N=C/c3ccc4c(c3)OCO4)n2)cc1 has what recorded Potency?
Completion: 3.55 µM (active)
